tested on: WEEV California; experiment: microbe, parasite or virus in culture; type: cell-based; conditions: Western equine encephalitis virus, Vero 76, 48 h, read-out: WEEV California EC50 nM
Below is a list of entries, each paired with its recorded EC50 value.
experimentalReadout: EC50

molecule="COc1ccc(-n2c([C@H]3CCCN3C3COC3)nc3ccc([N+](=O)[O-])cc3c2=O)cc1 [Example 11]" studysystem="WEEV California" readoutvalue="501 to 1000 nM"
molecule="COc1ccc(-n2c([C@H]3CCCN3)nc3ccc([N+](=O)[O-])cc3c2=O)cc1 [Example 9]" studysystem="WEEV California" readoutvalue="1 to 50 nM"
molecule="COc1ccc(-n2c(C3CC4CCC3N4)nc3c(-c4ccc(C)nc4)cc(C#N)cc3c2=O)cc1F (stereo not shown) [Example 143]" studysystem="WEEV California" readoutvalue="151 to 500 nM"
molecule="COc1ccc(-n2c([C@H]3CCCN3)nc3c(-c4cccnc4)cc([N+](=O)[O-])cc3c2=O)cc1F [Example 81]" studysystem="WEEV California" readoutvalue="1 to 50 nM"
molecule="COc1c(F)cc(-n2c(C3CCCNC3)nc3c(-c4ccc(C)nc4)cc(C#N)cc3c2=O)cc1F (stereo not shown) [Example 189]" studysystem="WEEV California" readoutvalue="51 to 150 nM"
molecule="COc1ccc(-n2c([C@@H]3CCN(C)C3)nc3c(C)cc([N+](=O)[O-])cc3c2=O)cc1F [Example 68]" studysystem="WEEV California" readoutvalue="151 to 500 nM"
molecule="COc1ccc(-n2c([C@H]3CCCN3)nc3c(-c4cncnc4)cc([N+](=O)[O-])cc3c2=O)cc1 [Example 87]" studysystem="WEEV California" readoutvalue="1 to 50 nM"

Source: patent US20220348558A1
